# measurement-description: xn = mol fraction of the nth substance listed, in the solute-free solvent
# condition-summary: 323.15 K; x2 = 0.4
measured-metric: solubility (g/100 g solution)

Worked set:
1. Cl.NC(C=O)C(O)C(O)C(O)CO (stereo not given) + O + CCO | 1.27
2. O=c1cc(-c2ccccc2)oc2cc(O)c(O)c(O)c12 + CCO + O | 0.73

1: O=CC(O)C(O)C(O)CO (stereo not given) + CCO + CCCCCC
2: Cl.NC(C=O)C(O)C(O)C(O)CO (stereo not given) + O + CO
Q: Out of 1 and 2 , name the one with the higher solubility (g/100 g solution). Label of pick, please.
A: 2
(2: 4.72, 1: 0.98)

* * *

# measurement-description: xn = mol fraction of the nth substance listed, in the solute-free solvent
# condition-summary: 313.15 K; x2 = 0.9
measured-metric: solubility (g/100 g solution)

Worked set:
1) Cl.NC(C=O)C(O)C(O)C(O)CO (stereo unspecified) + O + CO | 24.2
2) Cc1nc(C)c(C)nc1C + CO + CC#N | 70.7

a: Cc1nc(C)c(C)nc1C + CCCCO + CC#N
b: Cl.NC(C=O)C(O)C(O)C(O)CO (stereo unspecified) + O + CCO
c: O=CC(O)C(O)C(O)CO (stereo unspecified) + CC(C)O + CCCCCC
d: O=CC(O)C(O)C(O)CO (stereo unspecified) + CCO + CCCCCC
Q: Rank descending by solubility (g/100 g solution). Please respond by ranking the labels in the order requested.
A: a, b, d, c
(a: 51.3, b: 20.6, d: 6.9, c: 3.38)

* * *

# measurement-description: xn = mol fraction of the nth substance listed, in the solute-free solvent
# condition-summary: 283.15 K; x2 = 0.8
measured-metric: solubility (g/100 g solution)

1. Cc1nc(C)c(C)nc1C + CO + CC#N | 42.2

1: Cc1nc(C)c(C)nc1C + CCCCO + CC#N
2: O=CC(O)C(O)C(O)CO (stereo not drawn) + CCO + CCCCCC
Q: Out of 1 and 2 , name the one with the higher solubility (g/100 g solution). Label of pick, please.
A: 1
